So I've got a bunch of compounds here, and I need their IC50 values.
target: Heat shock protein HSP 90-alpha (Homo sapiens, UniProt P07900); assay: Displacement of FITC-labeled geldanamycin from human recombinant HSP90alpha after 24 hrs by fluorescence displacement assay

O=C1C[C@@H](c2ccc(O)cc2O)N1c1ccc2c(c1)OCCO2    > 200 µM
CCc1cc([C@@H]2CC(=O)N2c2cc(OC)c(OC)c(OC)c2)c(O)cc1O    > 200 µM
CCc1cc([C@@H]2CC(=O)N2c2ccc(OC)cc2)c(O)cc1O    > 200 µM
CCc1cc(/C=N/c2ccc3c(c2)OCCO3)c(O)cc1O    14.5 µM
CCc1cc([C@@H]2[C@@H](c3ccccc3)C(=O)N2c2ccc3c(c2)OCCO3)c(O)cc1O    > 200 µM
COc1ccc([C@@H]2CC(=O)N2c2ccc3c(c2)OCCO3)c(OC)c1    > 200 µM
CCc1cc([C@@H]2CC(=O)N2c2ccc3c(c2)OCCO3)c(O)cc1O    5.6 µM
CCc1cc([C@@H]2CC(=O)N2c2ccc3c(c2)OCO3)c(O)cc1O    > 200 µM

Go through the items and report each one's IC50.
1. COc1ccc(OC)c([C@@H]2CC(=O)N2c2ccc3c(c2)OCCO3)c1
2. CCc1cc(/C=N/c2ccc3c(c2)OCO3)c(O)cc1O

Out:
["> 200 µM", "22.1 µM"]
